run_conditions: in cyclohexane, 308.15 K

{"smi": "CCOC(=O)c1ccc(N)cc1", "solubility (mole fraction)": 0.00185}

* * *

run_conditions: in isopropyl myristate, 303.15 K

{"smi": "CCOC(=O)c1ccc(N)cc1", "solubility (mole fraction)": 0.0764}

* * *

run_conditions: in n-octanol, 303.15 K

{"smi": "CCOC(=O)c1ccc(N)cc1", "solubility (mole fraction)": 0.0753}

* * *

run_conditions: in isopropyl myristate, 313.15 K
recorded_metric: solubility (mole fraction)

{"smi": "CCOC(=O)c1ccc(N)cc1", "reported": 0.121}

* * *

run_conditions: in n-octanol, 298.15 K

{"smi": "CCOC(=O)c1ccc(N)cc1", "solubility (mole fraction)": 0.0628}
